assayProcedure: Antiproliferative activity against human TK10 cells assessed as cell growth at 10^-5 M after 48 hrs by sulforhodamine B assay
Assay type: functional
measurementContext: TK-10, 48 h, read-out: Activity
Each entry below lists one item and its recorded growth at 10 µM value.

- chemicalStructure: "CNC(=O)c1cc(Oc2ccc3nc(NC(=O)Nc4ccc(Cl)cc4)sc3c2)ccn1"
  growth at 10 µM / %: 62.3
- chemicalStructure: "CNC(=O)c1cc(Oc2ccc3nc(NC(=O)Nc4ccc(F)cc4F)sc3c2)ccn1"
  growth at 10 µM / %: 93.5
- chemicalStructure: "CNC(=O)c1cc(Oc2ccc3nc(NC(=O)c4ccc5c(c4)OCCO5)sc3c2)ccn1"
  growth at 10 µM / %: 105
- chemicalStructure: "CNC(=O)c1cc(Oc2ccc3nc(NC(=O)c4cccc(F)n4)sc3c2)ccn1"
  growth at 10 µM / %: 133
- chemicalStructure: "CNC(=O)c1cc(Oc2ccc3nc(NC(=O)Nc4cc(C(F)(F)F)cc(C(F)(F)F)c4)sc3c2)ccn1"
  growth at 10 µM / %: -79
- chemicalStructure: "CNC(=O)c1cc(Oc2ccc3nc(NC(=O)Nc4ccc(Cl)c(Cl)c4)sc3c2)ccn1"
  growth at 10 µM / %: -4
- chemicalStructure: "CNC(=O)c1cc(Oc2ccc3nc(NC(=O)Nc4ccc(Cl)c(C(F)(F)F)c4)sc3c2)ccn1"
  growth at 10 µM / %: -55
- chemicalStructure: "CNC(=O)c1cc(Oc2ccc3nc(NC(=O)Nc4ccc(C(F)(F)F)cc4)sc3c2)ccn1"
  growth at 10 µM / %: 55.3
- chemicalStructure: "CNC(=O)c1cc(Oc2ccc3nc(NC(=O)c4ccc5ncccc5c4)sc3c2)ccn1"
  growth at 10 µM / %: 90.5
- chemicalStructure: "CNC(=O)c1cc(Oc2ccc3nc(NC(=O)c4ccc(Cl)c(C(F)(F)F)c4)sc3c2)ccn1"
  growth at 10 µM / %: 92.8
- chemicalStructure: "CNC(=O)c1cc(Oc2ccc3nc(NC(=O)c4cc(C(F)(F)F)cc(C(F)(F)F)c4)sc3c2)ccn1"
  growth at 10 µM / %: 8

---

assayProcedure: Antiproliferative activity against human UACC257 cells assessed as growth inhibition after 48 hrs by sulforhodamine B assay
Type: functional
measurementContext: UACC-257, 48 h
Each entry below lists one item and its recorded TGI value.

- chemicalStructure: "CNC(=O)c1cc(Oc2ccc3nc(NC(=O)Nc4cc(C(F)(F)F)cc(C(F)(F)F)c4)sc3c2)ccn1"
  TGI: "2.62 µM"
- chemicalStructure: "CNC(=O)c1cc(Oc2ccc3nc(NC(=O)c4cc(C(F)(F)F)cc(C(F)(F)F)c4)sc3c2)ccn1"
  TGI: "8.12 µM"
- chemicalStructure: "CNC(=O)c1cc(Oc2ccc(NC(=O)Nc3ccc(Cl)c(C(F)(F)F)c3)cc2)ccn1"
  TGI: "5.01 µM"
- chemicalStructure: "CNC(=O)c1cc(Oc2ccc3nc(NC(=O)Nc4ccc(Cl)c(C(F)(F)F)c4)sc3c2)ccn1"
  TGI: "> 100 µM"

---

Test system: MDA-MB-435
assayProcedure: Antiproliferative activity against human MDA-MB-435 cells assessed as cell growth at 10^-6 M after 48 hrs by sulforhodamine B assay
Type: functional
measurementContext: MDA-MB-435, 48 h, read-out: Activity

- chemicalStructure: "CNC(=O)c1cc(Oc2ccc3nc(NC(=O)Nc4cc(C(F)(F)F)cc(C(F)(F)F)c4)sc3c2)ccn1"
  growth at 1 µM: "52%"
- chemicalStructure: "CNC(=O)c1cc(Oc2ccc3nc(NC(=O)Nc4ccc(Cl)c(Cl)c4)sc3c2)ccn1"
  growth at 1 µM: "93%"
- chemicalStructure: "CNC(=O)c1cc(Oc2ccc3nc(NC(=O)c4cc(C(F)(F)F)cc(C(F)(F)F)c4)sc3c2)ccn1"
  growth at 1 µM: "96%"
- chemicalStructure: "CNC(=O)c1cc(Oc2ccc3nc(NC(=O)Nc4ccc(Cl)c(C(F)(F)F)c4)sc3c2)ccn1"
  growth at 1 µM: "83%"

---

assayProcedure: Antiproliferative activity against human SKOV3 cells assessed as cell growth at 10^-8 M after 48 hrs by sulforhodamine B assay
Type: functional
measurementContext: SK-OV-3, 48 h, read-out: Activity

- chemicalStructure: "CNC(=O)c1cc(Oc2ccc3nc(NC(=O)Nc4ccc(Cl)c(Cl)c4)sc3c2)ccn1"
  growth at 0.01 µM (%): 110
- chemicalStructure: "CNC(=O)c1cc(Oc2ccc3nc(NC(=O)c4cc(C(F)(F)F)cc(C(F)(F)F)c4)sc3c2)ccn1"
  growth at 0.01 µM (%): 100
- chemicalStructure: "CNC(=O)c1cc(Oc2ccc3nc(NC(=O)Nc4cc(C(F)(F)F)cc(C(F)(F)F)c4)sc3c2)ccn1"
  growth at 0.01 µM (%): 87
- chemicalStructure: "CNC(=O)c1cc(Oc2ccc3nc(NC(=O)Nc4ccc(Cl)c(C(F)(F)F)c4)sc3c2)ccn1"
  growth at 0.01 µM (%): 97

---

Each entry below lists one item and its recorded LC50 value.
System: KM12
assayProcedure: Antiproliferative activity against human KM12 cells assessed as growth inhibition after 48 hrs by sulforhodamine B assay
Format: functional
measurementContext: KM12, 48 h
observationType: LC50 (µM)

- chemicalStructure: "CNC(=O)c1cc(Oc2ccc3nc(NC(=O)c4cc(C(F)(F)F)cc(C(F)(F)F)c4)sc3c2)ccn1"
  inequalityOperator: "="
  recordedNumber: 92.7
- chemicalStructure: "CNC(=O)c1cc(Oc2ccc3nc(NC(=O)Nc4ccc(Cl)c(C(F)(F)F)c4)sc3c2)ccn1"
  inequalityOperator: ">"
  recordedNumber: 100
- chemicalStructure: "CNC(=O)c1cc(Oc2ccc3nc(NC(=O)Nc4cc(C(F)(F)F)cc(C(F)(F)F)c4)sc3c2)ccn1"
  inequalityOperator: "="
  recordedNumber: 7.96
- chemicalStructure: "CNC(=O)c1cc(Oc2ccc3nc(NC(=O)Nc4ccc(Cl)c(Cl)c4)sc3c2)ccn1"
  inequalityOperator: ">"
  recordedNumber: 100

---

assayProcedure: Antiproliferative activity against human LOXIMVI cells assessed as cell growth at 10^-8 M after 48 hrs by sulforhodamine B assay
Type: functional
measurementContext: LOX IMVI, read-out: Activity
Each entry below lists one item and its recorded growth at 0.01 µM value.

- chemicalStructure: "CNC(=O)c1cc(Oc2ccc3nc(NC(=O)Nc4ccc(Cl)c(Cl)c4)sc3c2)ccn1"
  growth at 0.01 µM (%): 95
- chemicalStructure: "CNC(=O)c1cc(Oc2ccc3nc(NC(=O)Nc4ccc(Cl)c(C(F)(F)F)c4)sc3c2)ccn1"
  growth at 0.01 µM (%): 99
- chemicalStructure: "CNC(=O)c1cc(Oc2ccc3nc(NC(=O)Nc4cc(C(F)(F)F)cc(C(F)(F)F)c4)sc3c2)ccn1"
  growth at 0.01 µM (%): 93
- chemicalStructure: "CNC(=O)c1cc(Oc2ccc3nc(NC(=O)c4cc(C(F)(F)F)cc(C(F)(F)F)c4)sc3c2)ccn1"
  growth at 0.01 µM (%): 97

---

assayProcedure: Cytotoxicity against human SKBR3 cells assessed as growth inhibition at 10 uM after 2 days by MTT assay
Format: functional
measurementContext: SK-BR-3, 48 h, read-out: GI
Each entry below lists one item and its recorded inhibition of growth at 10 µM value.

- chemicalStructure: "CNC(=O)c1cc(Oc2ccc3nc(NC(=O)Nc4ccc(Cl)c(Cl)c4)sc3c2)ccn1"
  unitSymbol: "%"
  inhibition of growth at 10 µM: 69
- chemicalStructure: "CNC(=O)c1cc(Oc2ccc3nc(NC(=O)c4cc(Cl)cc(Cl)c4)sc3c2)ccn1"
  unitSymbol: "%"
  inhibition of growth at 10 µM: 9.62
- chemicalStructure: "CNC(=O)c1cc(Oc2ccc3nc(NC(=O)c4cc(C(F)(F)F)cc(C(F)(F)F)c4)sc3c2)ccn1"
  unitSymbol: "%"
  inhibition of growth at 10 µM: 8.56
- chemicalStructure: "CNC(=O)c1cc(Oc2ccc3nc(NC(=O)Nc4ccc(Cl)c(C(F)(F)F)c4)sc3c2)ccn1"
  unitSymbol: "%"
  inhibition of growth at 10 µM: 79.6
- chemicalStructure: "CNC(=O)c1cc(Oc2ccc(NC(=O)Nc3ccc(Cl)c(C(F)(F)F)c3)cc2)ccn1"
  unitSymbol: "%"
  inhibition of growth at 10 µM: 48.9
- chemicalStructure: "CNC(=O)c1cc(Oc2ccc3nc(NC(=O)c4ccc(Cl)cc4)sc3c2)ccn1"
  unitSymbol: "%"
  inhibition of growth at 10 µM: 18.9
- chemicalStructure: "CNC(=O)c1cc(Oc2ccc3nc(NC(=O)c4ccc(Cl)c(C(F)(F)F)c4)sc3c2)ccn1"
  unitSymbol: "%"
  inhibition of growth at 10 µM: 6.26
- chemicalStructure: "CNC(=O)c1cc(Oc2ccc3nc(NC(=O)Nc4cc(C(F)(F)F)cc(C(F)(F)F)c4)sc3c2)ccn1"
  unitSymbol: "%"
  inhibition of growth at 10 µM: 88.1
- chemicalStructure: "CNC(=O)c1cc(Oc2ccc3nc(NC(=O)Nc4ccc(N5CCN(C)CC5)cc4)sc3c2)ccn1"
  unitSymbol: "%"
  inhibition of growth at 10 µM: 30.5
- chemicalStructure: "CNC(=O)c1cc(Oc2ccc3nc(NC(=O)Nc4ccc(Cl)cc4Cl)sc3c2)ccn1"
  unitSymbol: "%"
  inhibition of growth at 10 µM: 22.3
- chemicalStructure: "CNC(=O)c1cc(Oc2ccc3nc(NC(=O)c4ccc5ncccc5c4)sc3c2)ccn1"
  unitSymbol: "%"
  inhibition of growth at 10 µM: 17.1
- chemicalStructure: "CNC(=O)c1cc(Oc2ccc3nc(NC(=O)c4ccc(Cl)cc4Cl)sc3c2)ccn1"
  unitSymbol: "%"
  inhibition of growth at 10 µM: 14
- chemicalStructure: "CNC(=O)c1cc(Oc2ccc3nc(NC(=O)c4cc5ccccc5o4)sc3c2)ccn1"
  unitSymbol: "%"
  inhibition of growth at 10 µM: 54.4
- chemicalStructure: "CNC(=O)c1cc(Oc2ccc3nc(NC(=O)Nc4ccc(C(F)(F)F)cc4)sc3c2)ccn1"
  unitSymbol: "%"
  inhibition of growth at 10 µM: 69.9
- chemicalStructure: "CNC(=O)c1cc(Oc2ccc3nc(NC(=O)Nc4ccc(N5CCOCC5)cc4)sc3c2)ccn1"
  unitSymbol: "%"
  inhibition of growth at 10 µM: 14.1
- chemicalStructure: "CNC(=O)c1cc(Oc2ccc3nc(NC(=O)c4cccc(F)n4)sc3c2)ccn1"
  unitSymbol: "%"
  inhibition of growth at 10 µM: 12.5
- chemicalStructure: "CNC(=O)c1cc(Oc2ccc3nc(NC(=O)Nc4cc(C(F)(F)F)ccc4Cl)sc3c2)ccn1"
  unitSymbol: "%"
  inhibition of growth at 10 µM: 28.3
- chemicalStructure: "CNC(=O)c1cc(Oc2ccc3nc(NC(=O)c4ccc5c(c4)OCCO5)sc3c2)ccn1"
  unitSymbol: "%"
  inhibition of growth at 10 µM: 50.7
- chemicalStructure: "CNC(=O)c1cc(Oc2ccc3nc(NC(=O)Nc4ccc(Br)cc4)sc3c2)ccn1"
  unitSymbol: "%"
  inhibition of growth at 10 µM: 26.7
